Entries and their pIC50 values follow.
# subject_of_test: IDO1 (Homo sapiens, UniProt P14902)
# Sequence (P14902 whole entry): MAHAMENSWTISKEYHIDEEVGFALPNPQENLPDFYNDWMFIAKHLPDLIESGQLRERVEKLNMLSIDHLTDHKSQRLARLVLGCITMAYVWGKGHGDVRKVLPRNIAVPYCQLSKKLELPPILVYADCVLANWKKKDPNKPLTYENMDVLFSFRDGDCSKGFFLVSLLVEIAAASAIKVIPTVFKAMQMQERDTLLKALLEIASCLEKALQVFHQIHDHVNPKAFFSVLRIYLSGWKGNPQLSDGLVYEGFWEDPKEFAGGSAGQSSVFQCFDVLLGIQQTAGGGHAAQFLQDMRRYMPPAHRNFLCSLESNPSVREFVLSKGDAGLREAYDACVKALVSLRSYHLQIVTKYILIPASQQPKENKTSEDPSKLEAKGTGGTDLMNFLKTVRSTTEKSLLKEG
# assay_procedure: IDO1 Human Whole Blood Assay
# Format: cell-based
# measurement_context: LPS and IFNγ 100 ng/mL, overnight (18 h), kynurenine by LC/MS/MS, read-out: Human Whole Blood Potency, IC50
API: returns pIC50 as number; meaning -log10 of concentration in mol/L.

                                   molecule  quantity_kind  numeric_value
0  Cc1cccc(C2CCC(CCn3nc(C(=O)N4CCC(O)CC4)c4c3CCC4)CC2)c1C (single isomer, unassigned) [Example 96]          pIC50           6.48
1  CC(=O)NC1CCN(C(=O)c2nn(CC[C@H]3CC[C@@H](Oc4ccccc4C)CC3)c3c2CCC3)CC1          pIC50           7.51
2  Cc1c(F)ccc(N2CCC(CCn3nc(C(=O)N4CCN(C(=O)CO)CC4)c4c3CCC4)CC2)c1C          pIC50           6.10
3  Cc1c(F)ccc(C2CCC(CCn3nc(C(=O)N4CCC(F)(CO)CC4)c4c3CCC4)CC2)c1C (single isomer, unassigned)          pIC50           6.35
4  Cc1cccnc1O[C@H]1CC[C@@H](CCn2nc(C(=O)N3CC[C@H](O)[C@H](F)C3)c3c2C[C@H]2C[C@@H]32)CC1          pIC50           6.96
5  Cc1c(F)ccc(C2CCC(CCn3nc(C(=O)N4CCN(C(=O)CO)CC4)c4c3CCC4)CC2)c1C (single isomer, unassigned)          pIC50           6.75

# ---- query molecule ----
Briefly, pIC50 measured for `CC(=O)NC1CCN(C(=O)c2nn(CC[C@H]3CC[C@@H](Oc4cnc(C)nc4C)CC3)c3c2CCC3)CC1` : 6.29
